// reported Activity Activation % per item
biological target: human MCH receptor (Homo sapiens, UniProt Q99705); test: Aequorin bioluminescence functional assay in 293-AEQ17 cells transfected with human MCH receptor; assay type: cell-based; set-up: expressed in transfected cells; host or cells: 293-AEQ17 (aequorin-expressing HEK-293 reporter line), transient lipofectamine transfection, pcDNA-3 vector; concentration or dose not given beside the values; conditions: Table 4; position 6 modification
Sequence (Q99705 whole entry): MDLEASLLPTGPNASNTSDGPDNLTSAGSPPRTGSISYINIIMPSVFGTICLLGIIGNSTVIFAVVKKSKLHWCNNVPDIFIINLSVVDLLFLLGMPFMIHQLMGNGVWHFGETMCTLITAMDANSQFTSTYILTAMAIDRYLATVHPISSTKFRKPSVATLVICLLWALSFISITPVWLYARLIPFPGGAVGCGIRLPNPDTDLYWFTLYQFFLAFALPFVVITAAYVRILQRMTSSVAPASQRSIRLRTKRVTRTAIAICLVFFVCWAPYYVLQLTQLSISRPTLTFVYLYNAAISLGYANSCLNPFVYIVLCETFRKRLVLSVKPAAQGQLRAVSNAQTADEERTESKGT
Supply the numeric figure in %, leaving out any unit text.

[
  {
    "Compound": "CSCC[C@@H]1NC(=O)[C@@H](NC(=O)[C@@H](N)CCCNC(=N)N)CSSC[C@@H](C(N)=O)NC(=O)[C@@H]2CCCN2C(=O)[C@H](CCCNC(=N)N)NC(=O)[C@H](Cc2ccc(O)cc2)NC(=O)[C@H](C(C)C)NC(=O)[C@H](CCCNC(=N)N)NC(=O)CNC(=O)[C@H](CC(C)C)NC1=O [compound 39]",
    "Units label": "%",
    "Activity Activation %": 106
  }
]

Continue with the next compound.
Ask: Quote Activity Activation % reported for CSCC[C@@H]1NC(=O)[C@@H](NC(=O)[C@H](CC(N)=O)NC(C)=O)CSSC[C@@H](C(N)=O)NC(=O)[C@@H]2CCCN2C(=O)[C@H](CCCNC(=N)N)NC(=O)[C@H](Cc2ccc(O)cc2)NC(=O)[C@H](C(C)C)NC(=O)[C@H](CCCNC(=N)N)NC(=O)CNC(=O)[C@H](CC(C)C)NC1=O [compound 34] please.
Reply: 96

----------
target: human MCH receptor (Homo sapiens, UniProt Q99705); assay: Aequorin bioluminescence functional assay in 293-AEQ17 cells transfected with human MCH receptor; format: cell-based; parameters: expressed in transfected cells; host or cells: 293-AEQ17 (aequorin-expressing HEK-293 reporter line), transient lipofectamine transfection, pcDNA-3 vector; concentration or dose not given beside the values; conditions: Table 5; position 10 modification
Where a SMILES comes first, the peptide text is derived from it. Bridges are numbered along the chain shown (N, C = ends).
Reported property: Activity Activation % (%)
Report only the number, with the unit % understood.

Ask: Look up Activity Activation % of CSCC[C@@H]1NC(=O)[C@@H](NC(=O)[C@H](CCCNC(=N)N)NC(C)=O)CSSC[C@@H](C(N)=O)NC(=O)[C@@H]2CCCN2C(=O)[C@H](CCCNC(=N)N)NC(=O)[C@H](Cc2ccc(O)cc2)NC(=O)[C@H](C(C)C)NC(=O)[C@H](CCCNC(=N)N)NC(=O)[C@H](CC(C)C)NC(=O)[C@H](CC(C)C)NC1=O and report it.
Reply: 106

Ask: Report Activity Activation %, nothing else, for this compound: CSCC[C@@H]1NC(=O)[C@@H](NC(=O)[C@H](CCCNC(=N)N)NC(=O)[C@H](CC(C)C)NC(=O)[C@H](CCSC)NC(=O)[C@H](CC(=O)O)NC(=O)[C@H](Cc2ccccc2)NC(=O)[C@@H](N)CC(=O)O)CSSC[C@@H](C(=O)N[C@@H](Cc2c[nH]c3ccccc23)C(=O)N[C@@H](CCC(N)=O)C(=O)N[C@H](C(=O)O)C(C)C)NC(=O)[C@@H]2CCCN2C(=O)[C@H](CCCNC(=N)N)NC(=O)[C@H](Cc2ccc(O)cc2)NC(=O)[C@H](C(C)C)NC(=O)[C@H](CCCNC(=N)N)NC(=O)CNC(=O)[C@H](CC(C)C)NC1=O
Reply: 100

Ask: Please list Activity Activation % recorded for the compound CSCC[C@@H]1NC(=O)[C@@H](NC(=O)[C@H](CCCNC(=N)N)NC(C)=O)CSSC[C@@H](C(N)=O)NC(=O)[C@@H]2CCCN2C(=O)[C@H](CCCNC(=N)N)NC(=O)[C@H](Cc2ccc(O)cc2)NC(=O)[C@H](C(C)C)NC(=O)[C@H](CCCNC(=N)N)NC(=O)[C@H](CO)NC(=O)[C@H](CC(C)C)NC1=O [compound 52] (Ac-RCMLSRVYRPC-NH2; disulfide 2-11 (inferred))
Reply: 104

Ask: Note down Activity Activation % recorded for CSCC[C@@H]1NC(=O)[C@@H](NC(=O)[C@H](CCCNC(=N)N)NC(C)=O)CSSC[C@@H](C(N)=O)NC(=O)[C@@H]2CCCN2C(=O)[C@H](CCCNC(=N)N)NC(=O)[C@H](Cc2ccc(O)cc2)NC(=O)[C@H](C(C)C)NC(=O)[C@H](CCCNC(=N)N)NC(=O)[C@H](CC(N)=O)NC(=O)[C@H](CC(C)C)NC1=O [compound 51] (Ac-RCMLNRVYRPC-NH2; disulfide 2-11)
Reply: 106

Ask: Note Activity Activation % for the compound shown: CSCC[C@@H]1NC(=O)[C@@H](NC(=O)[C@H](CCCNC(=N)N)NC(C)=O)CSSC[C@@H](C(N)=O)NC(=O)[C@@H]2CCCN2C(=O)[C@H](CCCNC(=N)N)NC(=O)[C@H](Cc2ccc(O)cc2)NC(=O)[C@H](C(C)C)NC(=O)[C@H](CCCNC(=N)N)NC(=O)[C@H](CCCCN)NC(=O)[C@H](CC(C)C)NC1=O
Reply: 25

Ask: Indicate its recorded Activity Activation %; the compound in question is CSCC[C@@H]1NC(=O)[C@@H](NC(=O)[C@H](CCCNC(=N)N)NC(C)=O)CSSC[C@@H](C(N)=O)NC(=O)[C@@H]2CCCN2C(=O)[C@H](CCCNC(=N)N)NC(=O)[C@H](Cc2ccc(O)cc2)NC(=O)[C@H](C(C)C)NC(=O)[C@H](CCCNC(=N)N)NC(=O)[C@H](C)NC(=O)[C@H](CC(C)C)NC1=O [compound 47] (Ac-RCMLARVYRPC-NH2; disulfide 2-11)
Reply: 104

Ask: Tell us which Activity Activation % value is on record for CSCC[C@@H]1NC(=O)[C@@H](NC(=O)[C@H](CCCNC(=N)N)NC(C)=O)CSSC[C@@H](C(N)=O)NC(=O)[C@@H]2CCCN2C(=O)[C@H](CCCNC(=N)N)NC(=O)[C@H](Cc2ccc(O)cc2)NC(=O)[C@H](C(C)C)NC(=O)[C@H](CCCNC(=N)N)NC(=O)CNC(=O)[C@H](CC(C)C)NC1=O
Reply: 99

Ask: Output measured Activity Activation % for this item: CSCC[C@@H]1NC(=O)[C@@H](NC(=O)[C@H](CCCNC(=N)N)NC(C)=O)CSSC[C@@H](C(N)=O)NC(=O)[C@@H]2CCCN2C(=O)[C@H](CCCNC(=N)N)NC(=O)[C@H](Cc2ccc(O)cc2)NC(=O)[C@H](C(C)C)NC(=O)[C@H](CCCNC(=N)N)NC(=O)[C@@H]2CCCN2C(=O)[C@H](CC(C)C)NC1=O
Reply: 4

Ask: Fill in reported Activity Activation % for this entry: CSCC[C@@H]1NC(=O)[C@@H](NC(=O)[C@H](CCCNC(=N)N)NC(C)=O)CSSC[C@@H](C(N)=O)NC(=O)[C@@H]2CCCN2C(=O)[C@H](CCCNC(=N)N)NC(=O)[C@H](Cc2ccc(O)cc2)NC(=O)[C@H](C(C)C)NC(=O)[C@H](CCCNC(=N)N)NC(=O)[C@H](CCC(=O)O)NC(=O)[C@H](CC(C)C)NC1=O
Reply: 12

Source of measurements: patent US7220720B2
